Target: CYP2A6 (Homo sapiens, UniProt P11509)
Construct: expressed in transfected cells
Sequence (P11509 whole entry): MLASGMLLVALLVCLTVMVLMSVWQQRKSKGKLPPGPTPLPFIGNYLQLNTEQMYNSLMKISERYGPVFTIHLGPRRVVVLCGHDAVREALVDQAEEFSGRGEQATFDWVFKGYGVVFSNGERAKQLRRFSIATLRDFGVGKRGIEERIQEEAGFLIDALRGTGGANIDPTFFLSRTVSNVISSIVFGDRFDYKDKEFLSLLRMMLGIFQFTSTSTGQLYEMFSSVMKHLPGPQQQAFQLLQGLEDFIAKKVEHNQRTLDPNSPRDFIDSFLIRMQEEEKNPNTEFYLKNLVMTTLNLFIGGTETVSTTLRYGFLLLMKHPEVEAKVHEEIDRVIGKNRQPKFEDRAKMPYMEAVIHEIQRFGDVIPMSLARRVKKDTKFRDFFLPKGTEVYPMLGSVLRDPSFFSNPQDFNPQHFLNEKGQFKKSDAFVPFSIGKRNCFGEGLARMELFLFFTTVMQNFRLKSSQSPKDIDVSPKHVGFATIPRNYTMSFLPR
Experiment: Kinetic analysis, coumarin 7-hydroxylase activity in Hepc/2A6L.9
Format: cell-based
Conditions: human, Hepc/2A6L.9 cells expressing CYP2A6, Lineweaver-Burk plot
measurement.name: Km (µM)
Numbers only, in µM.

Task item: Please give measured Km of the following entry: O=c1ccc2ccccc2o1 [Coumarin]
Reply: 11.1

###

Target: CYP3A4 (Homo sapiens, UniProt P08684)
Sequence (P08684 whole entry): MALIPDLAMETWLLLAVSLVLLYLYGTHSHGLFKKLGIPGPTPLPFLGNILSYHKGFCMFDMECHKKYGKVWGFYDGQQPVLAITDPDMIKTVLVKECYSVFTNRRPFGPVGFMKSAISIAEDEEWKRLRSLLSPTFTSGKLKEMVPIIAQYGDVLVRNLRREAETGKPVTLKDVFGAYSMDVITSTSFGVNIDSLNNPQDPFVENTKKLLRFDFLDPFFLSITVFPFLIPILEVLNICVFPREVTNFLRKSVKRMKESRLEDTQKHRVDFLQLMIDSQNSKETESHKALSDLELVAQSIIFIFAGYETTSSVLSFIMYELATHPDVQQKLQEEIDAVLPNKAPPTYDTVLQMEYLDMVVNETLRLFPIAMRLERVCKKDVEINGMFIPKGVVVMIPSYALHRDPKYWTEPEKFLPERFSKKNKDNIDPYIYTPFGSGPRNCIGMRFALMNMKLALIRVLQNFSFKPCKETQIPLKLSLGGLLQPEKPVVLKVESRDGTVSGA
Assay: Kinetic analysis, testosterone 6β-hydroxylase activity in Hepc/3A4.5
Conditions: human, Hepc/3A4.5 cells expressing CYP3A4
measurement.name: Km
Remember to follow the number with its unit.

Task item: Please indicate Km recorded for C[C@]12CC[C@H]3[C@@H](CCC4=CC(=O)CC[C@@]43C)[C@@H]1CC[C@@H]2O
Reply: 96 µM
